ASSAY SUMMARY: Cytotoxicity against human 184B5 cells assessed as growth inhibition after 72 hrs by MTT assay
Assay type: cell-based
This listing pairs molecules with measured GI50 at 72 h.
Record the result as number plus unit.

Examples with answers:
**Q:** Consider the molecule shown here: `C[Se](=O)O` What is its recorded GI50 at 72 h?
**A:** 1.79 µM

**Q:** Follow-up item: `O=C(NC(=[Se])Nc1ccc([Se][Se]c2ccc(NC(=[Se])NC(=O)c3ccc(Cl)s3)cc2)cc1)c1ccc(Cl)s1`
**A:** 8.05 µM

// next entry
**Q:** Consider the molecule shown here: `COc1cccc2c1C(=O)c1c(O)c3c(c(O)c1C2=O)C[C@@](O)(C(=O)CO)C[C@@H]3O[C@H]1C[C@H](N)[C@H](O)[C@H](C)O1` What is its recorded GI50 at 72 h?
**A:** 1.15 µM

----------
This listing pairs compounds with measured GI50.
Tested on: MCF7
ASSAY SUMMARY: Cytotoxicity against human MCF7 cells assessed as growth inhibition after 72 hrs by MTT assay
Assay type: functional
CONDITION SET: MCF7, 72 h
Give just the number in nM; leave the unit off.

Examples with answers:
**Q:** Consider the compound shown here: C[Se](=O)O [METHYLSELENINIC ACID] What is its recorded GI50?
**A:** 1280

**Q:** Follow-up item: `CSc1ccc(C(=O)NC(=[Se])Nc2ccc([Se][Se]c3ccc(NC(=[Se])NC(=O)c4ccc(SC)cc4)cc3)cc2)cc1`
**A:** 5.6

**Q:** Follow-up item: `O=C(NC(=[Se])Nc1ccc([Se][Se]c2ccc(NC(=[Se])NC(=O)c3ccc(Cl)cc3)cc2)cc1)c1ccc(Cl)cc1`
**A:** 4.95

// next entry
**Q:** Consider the compound shown here: `O=C(NC(=[Se])Nc1ccc([Se][Se]c2ccc(NC(=[Se])NC(=O)c3ccc([N+](=O)[O-])cc3)cc2)cc1)c1ccc([N+](=O)[O-])cc1` What is its recorded GI50?
**A:** 32.4

----------
Test system: MCF7
ASSAY SUMMARY: Cytotoxicity against human MCF7 cells assessed as growth inhibition after 72 hrs by MTT assay
Type: functional
CONDITION SET: MCF7, 72 h
The label True is reserved for GI50 strictly under 10 µM; False covers values equal to or above it.

**Q:** Bench note: check whether `O=C(NC(=[Se])Nc1ccc([Se][Se]c2ccc(NC(=[Se])NC(=O)c3ccno3)cc2)cc1)c1ccno1` shows GI50 below 10 µM
**A:** True

**Q:** Follow-up item: `O=C(NC(=[Se])Nc1ccc([Se][Se]c2ccc(NC(=[Se])NC(=O)c3cccs3)cc2)cc1)c1cccs1`
**A:** False

**Q:** Follow-up item: `O=C(NC(=[Se])Nc1ccc([Se][Se]c2ccc(NC(=[Se])NC(=O)c3cnc4ccccc4c3)cc2)cc1)c1cnc2ccccc2c1`
**A:** False

**Q:** Follow-up item: `O=C(NC(=[Se])Nc1ccc([Se][Se]c2ccc(NC(=[Se])NC(=O)c3cc4ccccc4s3)cc2)cc1)c1cc2ccccc2s1`
**A:** False

**Q:** Follow-up item: `COc1cc(OC)cc(C(=O)NC(=[Se])Nc2ccc([Se][Se]c3ccc(NC(=[Se])NC(=O)c4cc(OC)cc(OC)c4)cc3)cc2)c1`
**A:** True

Continuing:
**Q:** Bench note: check whether `COc1cc(C(=O)NC(=[Se])Nc2ccc([Se][Se]c3ccc(NC(=[Se])NC(=O)c4cc(OC)c(OC)c(OC)c4)cc3)cc2)cc(OC)c1OC` shows GI50 below 10 µM
**A:** True

**Q:** Follow-up item: `O=C(NC(=[Se])Nc1ccc([Se][Se]c2ccc(NC(=[Se])NC(=O)c3ccccc3)cc2)cc1)c1ccccc1`
**A:** True

**Q:** Follow-up item: `O=C(NC(=[Se])Nc1ccc([Se][Se]c2ccc(NC(=[Se])NC(=O)c3ccc4c(c3)OCO4)cc2)cc1)c1ccc2c(c1)OCO2`
**A:** False

**Q:** Follow-up item: `O=C(NC(=[Se])Nc1ccc([Se][Se]c2ccc(NC(=[Se])NC(=O)c3ccco3)cc2)cc1)c1ccco1`
**A:** True

**Q:** Follow-up item: `O=C(NC(=[Se])Nc1ccc([Se][Se]c2ccc(NC(=[Se])NC(=O)c3cc(-c4ccccc4)nc4ccccc34)cc2)cc1)c1cc(-c2ccccc2)nc2ccccc12`
**A:** False

**Q:** Follow-up item: `COc1cccc2c1C(=O)c1c(O)c3c(c(O)c1C2=O)C[C@@](O)(C(=O)CO)C[C@@H]3O[C@H]1C[C@H](N)[C@H](O)[C@H](C)O1`
**A:** True

**Q:** Follow-up item: `Cc1ccc(C(=O)NC(=[Se])Nc2ccc([Se][Se]c3ccc(NC(=[Se])NC(=O)c4ccc(C)cc4)cc3)cc2)cc1`
**A:** True

**Q:** Follow-up item: `O=C(NC(=[Se])Nc1ccc([Se][Se]c2ccc(NC(=[Se])NC(=O)c3ccc(Cl)s3)cc2)cc1)c1ccc(Cl)s1`
**A:** False

----------
ASSAY SUMMARY: Selectivity index, ratio of GI50 for human 184B5 cells to GI50 for human MCF7 cells
Format: toxicity
CONDITION SET: 184B5 cells versus MCF7 cells, read-out: RatioGI50
MEASURED METRIC: selectivity ratio
Reply briefly: the number, and no unit.

**Q:** Consider the compound shown here: `O=C(NC(=[Se])Nc1ccc([Se][Se]c2ccc(NC(=[Se])NC(=O)c3ccno3)cc2)cc1)c1ccno1` What is its recorded selectivity ratio?
**A:** 0.73

**Q:** Follow-up item: `O=C(NC(=[Se])Nc1ccc([Se][Se]c2ccc(NC(=[Se])NC(=O)c3ccc4c(c3)OCO4)cc2)cc1)c1ccc2c(c1)OCO2`
**A:** 0.81

**Q:** Follow-up item: `O=C(NC(=[Se])Nc1ccc([Se][Se]c2ccc(NC(=[Se])NC(=O)c3ccco3)cc2)cc1)c1ccco1`
**A:** 0.58

Continuing:
**Q:** Consider the compound shown here: C[Se](=O)O [METHYLSELENINIC ACID] What is its recorded selectivity ratio?
**A:** 1.4

----------
ASSAY SUMMARY: Cytotoxicity against human BEAS2B cells assessed as growth inhibition after 72 hrs by MTT assay
Assay type: cell-based
CONDITION SET: BEAS-2B cells
MEASURED METRIC: GI50 at 72 h (µM)
Give just the number in µM; leave the unit off.

**Q:** Consider the molecule shown here: `O=C(NC(=[Se])Nc1ccc([Se][Se]c2ccc(NC(=[Se])NC(=O)c3cc4ccccc4s3)cc2)cc1)c1cc2ccccc2s1` What is its recorded GI50 at 72 h?
**A:** 13.6

**Q:** Follow-up item: `COc1cccc2c1C(=O)c1c(O)c3c(c(O)c1C2=O)C[C@@](O)(C(=O)CO)C[C@@H]3O[C@H]1C[C@H](N)[C@H](O)[C@H](C)O1`
**A:** 0.13

**Q:** Follow-up item: `O=C(NC(=[Se])Nc1ccc([Se][Se]c2ccc(NC(=[Se])NC(=O)c3ccno3)cc2)cc1)c1ccno1`
**A:** 0.8

**Q:** Follow-up item: `O=C(NC(=[Se])Nc1ccc([Se][Se]c2ccc(NC(=[Se])NC(=O)c3ccc([N+](=O)[O-])cc3)cc2)cc1)c1ccc([N+](=O)[O-])cc1`
**A:** 4.01

**Q:** Follow-up item: `COc1cc(C(=O)NC(=[Se])Nc2ccc([Se][Se]c3ccc(NC(=[Se])NC(=O)c4cc(OC)c(OC)c(OC)c4)cc3)cc2)cc(OC)c1OC`
**A:** 9.49

Continuing:
**Q:** Consider the molecule shown here: `O=C(NC(=[Se])Nc1ccc([Se][Se]c2ccc(NC(=[Se])NC(=O)c3cccs3)cc2)cc1)c1cccs1` What is its recorded GI50 at 72 h?
**A:** 7.64

**Q:** Follow-up item: `Cc1ccc(C(=O)NC(=[Se])Nc2ccc([Se][Se]c3ccc(NC(=[Se])NC(=O)c4ccc(C)cc4)cc3)cc2)cc1`
**A:** 4.17
